Source of measurements: patent US20250084172A1

// kon lookup, one value per entry
# Subject of test: T1, cynomolgus soluble ULBP5 (cULBP5) (cynomolgus)
# T1 construct: also called Cyno-cULBP5
# T1 chain: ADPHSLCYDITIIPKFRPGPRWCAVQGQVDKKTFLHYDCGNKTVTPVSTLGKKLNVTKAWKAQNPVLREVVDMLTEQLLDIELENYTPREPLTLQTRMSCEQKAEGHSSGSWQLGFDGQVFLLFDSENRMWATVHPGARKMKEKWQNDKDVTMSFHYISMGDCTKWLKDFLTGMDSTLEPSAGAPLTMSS
# Test description: SPR (BIACORE 8K, 37 C); antibody captured on Protein A, soluble ULBP injected;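 note: ligand injected as threefold dilution series in HBS-P (highest 10 or 50 nM), reference-cell and buffer-subtracted sensorgrams fitted with a 1:1 Langmuir model for on and off rates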

# Binder, Unit, kon
measured = [
    ("humanized 1D4 (h1D4), Fc version not stated (antibody, V domains shown, Recombinant humanized antibody, hIgG1 backbone with kappa light chain; also called hiD4; hu1D4) VH: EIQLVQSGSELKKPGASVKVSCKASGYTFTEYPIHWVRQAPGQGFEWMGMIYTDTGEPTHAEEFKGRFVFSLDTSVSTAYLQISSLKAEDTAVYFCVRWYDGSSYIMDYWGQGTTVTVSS VL: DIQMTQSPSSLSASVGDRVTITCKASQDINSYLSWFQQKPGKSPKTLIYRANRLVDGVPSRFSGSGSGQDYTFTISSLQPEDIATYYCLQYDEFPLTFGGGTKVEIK", "M⁻¹ s⁻¹", "1.43e+06"),
    ("humanized 6E1 (h6E1), Fc version not stated (antibody, V domains shown, Recombinant humanized antibody, hIgG1 backbone with kappa light chain; also called hu6E1; PUR3993) VH: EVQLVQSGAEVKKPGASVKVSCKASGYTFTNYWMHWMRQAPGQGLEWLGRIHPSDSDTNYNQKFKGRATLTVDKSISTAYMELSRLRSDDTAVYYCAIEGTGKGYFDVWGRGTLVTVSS VL: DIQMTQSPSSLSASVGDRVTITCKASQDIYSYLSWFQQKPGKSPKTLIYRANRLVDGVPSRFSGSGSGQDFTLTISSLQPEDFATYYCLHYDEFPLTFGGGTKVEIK", "M⁻¹ s⁻¹", "6.1e+06"),
    ("humanized 7B3 (h7B3), Fc version not stated (antibody, V domains shown, Recombinant humanized antibody, hIgG1 backbone with kappa light chain; also called hu7B3; PUR3922) VH: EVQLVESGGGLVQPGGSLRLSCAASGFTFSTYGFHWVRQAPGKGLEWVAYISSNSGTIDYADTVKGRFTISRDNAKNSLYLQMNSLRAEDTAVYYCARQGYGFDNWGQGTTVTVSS VL: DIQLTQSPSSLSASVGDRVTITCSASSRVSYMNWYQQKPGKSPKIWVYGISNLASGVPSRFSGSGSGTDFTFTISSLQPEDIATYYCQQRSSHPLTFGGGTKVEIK", "M⁻¹ s⁻¹", 554000),
]
